# reported concentration at 24 h; entries follow
- assay_overview: Compound 1 and metabolite levels in pooled rat plasma, 2 week toxicology study
- Assay type: in vivo
- experimental_setup: rat, plasma, po, 100 mg/kg, compound 1 100 mg/kg PO once a day; Day 1; 24 hr; metabolites estimated by UV; read-out: Level in Rat Plasma
value_kind: concentration at 24 h (ng/mL)

| mol_smiles | unit | reported_value |
| --- | --- | --- |
| C[N+]1([O-])CCN(c2ccc3nc(-c4c(N)c5c(F)cccc5[nH]c4=O)[nH]c3c2)CC1 | ng/mL | 137 |
| Nc1c(-c2nc3ccc(N4CCNCC4)cc3[nH]2)c(=O)[nH]c2cccc(F)c12 | ng/mL | 83 |

Just for reference, patent US7838527B2 is where these values come from.
